Origin of the recorded values: patent US10745401B2

test: Test 4: metabolic stability test in human hepatic microsome; assay type: in vitro ADME; conditions: 0.1 mg/mL microsome, 0.1 μmol/L compound, 37° C., 30 minutes
endpoint.label: Metabolic stability in human hepatic microsome

Metabolic stability in human hepatic microsome reported for this compound Cn1ccc2c1CCCN(CCN1CCC(c3noc4ccccc34)C1)C2=O (stereo not drawn) : 0.125 mL/min/mg protein

Metabolic stability in human hepatic microsome reported for this compound Cc1cc2c(n1C)CCCN(CCN1CCN(c3nsc4ccccc34)CC1)C2=O : 0.413 mL/min/mg protein

Metabolic stability in human hepatic microsome reported for this compound CCc1ccc2c(n1)C(=O)N(CCN1CCC(c3noc4ccccc34)CC1)CC2 : <0.05 mL/min/mg protein

Metabolic stability in human hepatic microsome reported for this compound Cn1cc2c(n1)CCN(CCN1CCN(c3nsc4ccccc34)CC1)C2=O : 0.085 mL/min/mg protein

Metabolic stability in human hepatic microsome reported for this compound O=C1c2ncccc2CCN1CCN1CCC(c2noc3cc(F)ccc23)CC1 [Example 125] : <0.05 mL/min/mg protein

Metabolic stability in human hepatic microsome reported for this compound Cc1cc2c(cn1)C(=O)N(CCN1CCC(c3noc4ccccc34)CC1)CC2 : <0.05 mL/min/mg protein

Metabolic stability in human hepatic microsome reported for this compound O=C1c2cnc(Br)cc2CCN1CCN1CCN(c2nsc3ccccc23)CC1 : 0.505 mL/min/mg protein

Metabolic stability in human hepatic microsome reported for this compound O=c1c2cccnc2ccn1CCN1CCN(c2noc3ccccc23)CC1 : <0.05 mL/min/mg protein

Metabolic stability in human hepatic microsome reported for this compound O=c1c2cnccc2ccn1CCN1CCN(c2nsc3ccccc23)CC1 : 0.245 mL/min/mg protein

###

target: human D2 receptor (Homo sapiens (Human), UniProt P14416); test: Test 1: binding activity for human D2 receptor ([3H]Spiperone, CHO cell membrane fraction); details: selectivity ratio
Sequence (P14416 whole entry): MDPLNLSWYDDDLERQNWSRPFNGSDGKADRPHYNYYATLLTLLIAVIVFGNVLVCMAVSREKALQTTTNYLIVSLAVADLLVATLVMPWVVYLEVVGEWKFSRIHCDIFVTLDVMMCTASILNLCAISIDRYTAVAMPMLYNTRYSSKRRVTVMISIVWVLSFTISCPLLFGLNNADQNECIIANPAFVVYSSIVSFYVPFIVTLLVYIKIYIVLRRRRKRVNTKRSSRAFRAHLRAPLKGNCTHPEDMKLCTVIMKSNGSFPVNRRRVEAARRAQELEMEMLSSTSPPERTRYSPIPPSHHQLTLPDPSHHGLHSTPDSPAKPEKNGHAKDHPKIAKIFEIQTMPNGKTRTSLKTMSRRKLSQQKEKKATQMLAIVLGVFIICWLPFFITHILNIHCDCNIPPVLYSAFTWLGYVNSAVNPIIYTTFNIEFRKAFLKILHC
Rule: measured D2 Ki/5-HT1A Ki below 40 gets Y; anything equal to or greater than 40 gets N.

Task: Regarding Cn1cc2c(n1)CCN(CCN1CCC(c3noc4ccccc34)C1)C2=O (stereo not drawn) , kindly confirm whether its D2 Ki/5-HT1A Ki is beneath 40.
Output: N

Task: Regarding Cn1ncc2c1C(=O)N(CCN1CCN(c3nsc4ccccc34)CC1)CC2 , kindly confirm whether its D2 Ki/5-HT1A Ki is beneath 40.
Output: N

Task: Regarding Cc1nc2c(o1)C(=O)N(CCN1CCC(c3noc4ccccc34)CC1)CC2 , kindly confirm whether its D2 Ki/5-HT1A Ki is beneath 40.
Output: N

Task: Regarding O=C1c2ncccc2CCN1CCN1CCC(c2noc3cccc(F)c23)CC1 , kindly confirm whether its D2 Ki/5-HT1A Ki is beneath 40.
Output: N

Task: Regarding COc1ccc2onc(C3CCN(CCN4CCc5cccnc5C4=O)CC3)c2c1 , kindly confirm whether its D2 Ki/5-HT1A Ki is beneath 40.
Output: N

Task: Regarding Cn1cnc2c1CCCN(CCN1CCC(c3noc4ccccc34)CC1)C2=O , kindly confirm whether its D2 Ki/5-HT1A Ki is beneath 40.
Output: Y

Task: Regarding O=C1c2cnc(OC3COC3)cc2CCN1CCN1CCN(c2nsc3ccccc23)CC1 , kindly confirm whether its D2 Ki/5-HT1A Ki is beneath 40.
Output: N

Task: Regarding Cc1nc2c(o1)CCCN(CCN1CCC(c3noc4ccccc34)CC1)C2=O , kindly confirm whether its D2 Ki/5-HT1A Ki is beneath 40.
Output: N

Task: Regarding Cn1ccc2c1CCN(CCN1CCC(c3noc4ccccc34)CC1)C2=O , kindly confirm whether its D2 Ki/5-HT1A Ki is beneath 40.
Output: Y

Task: Regarding Cn1ncc2c1C(=O)N(CCN1CCC(c3noc4ccccc34)CC1)CC2 , kindly confirm whether its D2 Ki/5-HT1A Ki is beneath 40.
Output: Y

Task: Regarding O=C1c2ncccc2CCN1CCN1CCC(c2noc3c(F)cccc23)CC1 , kindly confirm whether its D2 Ki/5-HT1A Ki is beneath 40.
Output: N

Task: Regarding O=C1c2nc(Cl)ccc2CCN1CCN1CCC(c2noc3ccccc23)CC1 , kindly confirm whether its D2 Ki/5-HT1A Ki is beneath 40.
Output: N

Task: Regarding COc1ccc2c(C3CCN(CCN4CCc5cccnc5C4=O)CC3)noc2c1 , kindly confirm whether its D2 Ki/5-HT1A Ki is beneath 40.
Output: N

Task: Regarding CC(C)c1ncc2c(n1)CCN(CCN1CCN(c3nsc4ccccc34)CC1)C2=O , kindly confirm whether its D2 Ki/5-HT1A Ki is beneath 40.
Output: N

Task: Regarding Cc1cncc2c1CCN(CCN1CCN(c3noc4ccccc34)CC1)C2=O , kindly confirm whether its D2 Ki/5-HT1A Ki is beneath 40.
Output: Y

Task: Regarding CCc1ccc2c(n1)C(=O)N(CCN1CCC(c3noc4ccccc34)CC1)CC2 , kindly confirm whether its D2 Ki/5-HT1A Ki is beneath 40.
Output: N

Task: Regarding Cn1cc2c(n1)CCN(CCN1CCN(c3nsc4ccccc34)CC1)C2=O , kindly confirm whether its D2 Ki/5-HT1A Ki is beneath 40.
Output: N

Task: Regarding Cc1nc2c(o1)C(=O)N(CCN1CCC(c3noc4ccccc34)CC1)CCC2 , kindly confirm whether its D2 Ki/5-HT1A Ki is beneath 40.
Output: Y

Task: Regarding Cn1ncc2c1CCCN(CCN1CCC(c3noc4ccccc34)CC1)C2=O , kindly confirm whether its D2 Ki/5-HT1A Ki is beneath 40.
Output: N

Task: Regarding O=C1c2ncoc2CCN1CCN1CCC(c2noc3ccccc23)CC1 , kindly confirm whether its D2 Ki/5-HT1A Ki is beneath 40.
Output: N

Task: Regarding O=c1c2cnc(C(F)(F)F)cc2ccn1CCN1CCN(c2noc3ccccc23)CC1 , kindly confirm whether its D2 Ki/5-HT1A Ki is beneath 40.
Output: N

Task: Regarding Cn1ccc2c1CCCN(CCN1CCC(c3noc4ccccc34)C1)C2=O (stereo not drawn) , kindly confirm whether its D2 Ki/5-HT1A Ki is beneath 40.
Output: N

###

target: human D2 receptor (Homo sapiens (Human), UniProt P14416); assay: Test 1: binding activity for human D2 receptor ([3H]Spiperone, CHO cell membrane fraction); settings: selectivity ratio
Consider the following molecules; for each one, report its D2 Ki/5-HT2A Ki.

D2 Ki/5-HT2A Ki reported for this molecule O=C1c2ncoc2CCN1CCN1CCC(c2noc3ccccc23)CC1 [Example 190] : 47.9

D2 Ki/5-HT2A Ki reported for this molecule Cc1ncc2c(n1)CCN(CCN1CCN(c3noc4ccccc34)CC1)C2=O [Example 179] : >437.6

D2 Ki/5-HT2A Ki reported for this molecule Cc1cncc2c1CCN(CCN1CCN(c3noc4ccccc34)CC1)C2=O [Example 137] : 96.4

D2 Ki/5-HT2A Ki reported for this molecule O=C1c2cnc(OC3COC3)cc2CCN1CCN1CCN(c2nsc3ccccc23)CC1 [Example 111] : 530

D2 Ki/5-HT2A Ki reported for this molecule Cc1ncc2c(=O)n(CCN3CCN(c4noc5ccccc45)CC3)ccc2n1 [Example 193] : >81.7

D2 Ki/5-HT2A Ki reported for this molecule COc1ccc2c(C3CCN(CCN4CCc5cccnc5C4=O)CC3)noc2c1 [Example 149] : >46.1

D2 Ki/5-HT2A Ki reported for this molecule Cn1ncc2c1CCCN(CCN1CCC(c3noc4ccccc34)CC1)C2=O [Example 43] : 239

D2 Ki/5-HT2A Ki reported for this molecule O=C1c2ncccc2CCN1CCN1CCC(c2noc3c(F)cccc23)CC1 [Example 140] : >84.7

D2 Ki/5-HT2A Ki reported for this molecule Cc1nc2c(o1)CCCN(CCN1CCC(c3noc4ccccc34)CC1)C2=O [Example 157] : 44.2

D2 Ki/5-HT2A Ki reported for this molecule CCc1ccc2c(n1)C(=O)N(CCN1CCC(c3noc4ccccc34)CC1)CC2 [Example 185] : 41.4

D2 Ki/5-HT2A Ki reported for this molecule Cn1cnc2c1CCCN(CCN1CCC(c3noc4ccccc34)CC1)C2=O [Example 101] : 538

D2 Ki/5-HT2A Ki reported for this molecule CC(C)c1ncc2c(n1)CCN(CCN1CCN(c3nsc4ccccc34)CC1)C2=O [Example 180] : 363.5

D2 Ki/5-HT2A Ki reported for this molecule COc1ccc2onc(C3CCN(CCN4CCc5cccnc5C4=O)CC3)c2c1 [Example 142] : >61.0

D2 Ki/5-HT2A Ki reported for this molecule Cc1nc2c(o1)C(=O)N(CCN1CCC(c3noc4ccccc34)CC1)CC2 [Example 35] : 139

D2 Ki/5-HT2A Ki reported for this molecule O=C1c2ncccc2CCN1CCN1CCC(c2noc3cccc(F)c23)CC1 [Example 141] : >57.8

D2 Ki/5-HT2A Ki reported for this molecule Cn1ncc2c1C(=O)N(CCN1CCN(c3nsc4ccccc34)CC1)CC2 [Example 59] : 278

D2 Ki/5-HT2A Ki reported for this molecule Cn1ccc2c1CCN(CCN1CCC(c3noc4ccccc34)CC1)C2=O [Example 60] : 236

D2 Ki/5-HT2A Ki reported for this molecule Cn1ccc2c1CCCN(CCN1CCC(c3noc4ccccc34)C1)C2=O (stereo not drawn) [Example 175] : 251.4

D2 Ki/5-HT2A Ki reported for this molecule O=C1c2nc(Cl)ccc2CCN1CCN1CCC(c2noc3ccccc23)CC1 [Example 146] : 72.4

D2 Ki/5-HT2A Ki reported for this molecule Cn1cc2c(n1)CCN(CCN1CCC(c3noc4ccccc34)C1)C2=O (stereo not drawn) [Example 174] : >139.5

D2 Ki/5-HT2A Ki reported for this molecule Cn1ncc2c1C(=O)N(CCN1CCC(c3noc4ccccc34)CC1)CC2 [Example 96] : 14

D2 Ki/5-HT2A Ki reported for this molecule Cn1cc2c(n1)CCN(CCN1CCN(c3nsc4ccccc34)CC1)C2=O [Example 36] : 1456

D2 Ki/5-HT2A Ki reported for this molecule Cc1nc2c(o1)C(=O)N(CCN1CCC(c3noc4ccccc34)CC1)CCC2 [Example 154] : 54.9

D2 Ki/5-HT2A Ki reported for this molecule O=c1c2cnc(C(F)(F)F)cc2ccn1CCN1CCN(c2noc3ccccc23)CC1 [Example 173] : >438.0
